# Target Or Test System: CB1 (CNR1) (Homo sapiens, UniProt P21554)
# Sequence (P21554 whole entry): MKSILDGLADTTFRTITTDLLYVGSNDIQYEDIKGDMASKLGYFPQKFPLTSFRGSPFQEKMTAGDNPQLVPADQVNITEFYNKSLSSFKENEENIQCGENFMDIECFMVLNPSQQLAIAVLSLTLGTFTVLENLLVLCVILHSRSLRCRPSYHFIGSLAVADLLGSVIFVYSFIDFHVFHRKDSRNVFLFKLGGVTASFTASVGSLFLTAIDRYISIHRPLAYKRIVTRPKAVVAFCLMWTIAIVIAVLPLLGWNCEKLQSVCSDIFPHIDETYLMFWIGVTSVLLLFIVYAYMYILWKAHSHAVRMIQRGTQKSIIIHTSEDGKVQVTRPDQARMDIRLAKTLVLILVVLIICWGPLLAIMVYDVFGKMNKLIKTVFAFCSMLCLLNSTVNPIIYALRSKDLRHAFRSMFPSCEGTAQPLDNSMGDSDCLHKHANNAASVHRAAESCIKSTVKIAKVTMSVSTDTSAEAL
# Test Protocol: cAMP CNR1 Hunter cell line antagonist assay (CB1 assay)
# Reported Conditions: antagonist mode, cAMP CNR1 Hunter cells, EC80 agonist; read-out: CB1 assay, Efficacy (IC50)
Observation Type: IC50

Some solved entries appear below for comparison.
| Molecule | Target Or Test System | Reported Measurement |
| --- | --- | --- |
| CCC1Oc2c(cc(Br)cc2S(=O)(=O)Nc2ccc(C(C)C)cc2)N(C)C1=O (centres unmarked) | CB1 (CNR1) (Homo sapiens, UniProt P21554) | ≥ 25 µM |
| Cc1ccc(NS(=O)(=O)c2cc(Cl)cc3c2OC(C)C(=O)N3)cc1F (centres unmarked) | CB1 (CNR1) (Homo sapiens, UniProt P21554) | 1 to 25 µM |
| Cc1ccc(NS(=O)(=O)c2cc(Br)cc3c2OC(C)C(=O)N3)cc1Cl (centres unmarked) | CB1 (CNR1) (Homo sapiens, UniProt P21554) | ≥ 25 µM |
| Cc1ccc(NS(=O)(=O)c2c(C)c(Cl)cc3c2OCC(=O)N3)cc1Cl | CB1 (CNR1) (Homo sapiens, UniProt P21554) | ≥ 25 µM |

Next molecule, please.
State the recorded IC50 for this entry: CCOc1ccc(NS(=O)(=O)c2cc3c(cc2Br)NC(=O)CO3)cc1
1 to 25 µM
